Target protein (sequence): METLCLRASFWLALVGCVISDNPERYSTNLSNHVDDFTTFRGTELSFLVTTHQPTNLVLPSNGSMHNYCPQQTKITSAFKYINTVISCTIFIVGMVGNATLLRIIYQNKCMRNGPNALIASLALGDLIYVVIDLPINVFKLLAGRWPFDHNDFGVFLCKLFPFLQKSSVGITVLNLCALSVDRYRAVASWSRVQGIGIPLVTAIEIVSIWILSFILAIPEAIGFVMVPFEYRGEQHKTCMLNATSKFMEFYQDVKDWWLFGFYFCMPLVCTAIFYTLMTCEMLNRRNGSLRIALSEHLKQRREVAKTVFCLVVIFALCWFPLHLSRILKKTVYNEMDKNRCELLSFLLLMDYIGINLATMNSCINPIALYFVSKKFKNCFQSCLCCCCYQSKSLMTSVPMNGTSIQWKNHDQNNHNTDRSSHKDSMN
Below are pIC50 measurements against the protein given by its sequence drawn from the literature.
The value called pIC50 is obtained by taking minus log10 of the concentration in mol/L.

- cpd-smiles: "COc1ccc([C@@H]2c3ncccc3[C@H](c3ccc4c(c3)OCO4)[C@H]2C(=O)O)cc1"
  value: 8.62
- cpd-smiles: "Cc1ccc(OC(=O)c2sccc2S(=O)(=O)Nc2onc(C)c2C)c(C)c1"
  value: 6.57
- cpd-smiles: "Cc1ccc(NC(=O)c2sccc2S(=O)(=O)Nc2onc(C)c2C)cc1"
  value: 7.49

Observed pIC50 on the protein given by its sequence, entry `Cc1cc(C)c(OCc2sccc2S(=O)(=O)Nc2onc(C)c2Br)c(C)c1` , equals 7.21

Observed pIC50 on the protein given by its sequence, entry `Cc1noc(NS(=O)(=O)c2sccc2-c2ccc(CCC(C)C)cc2)c1Br` , equals 6.74

###

Biological target: Endothelin-1 receptor (Homo sapiens)
Sequence (P25101 whole entry): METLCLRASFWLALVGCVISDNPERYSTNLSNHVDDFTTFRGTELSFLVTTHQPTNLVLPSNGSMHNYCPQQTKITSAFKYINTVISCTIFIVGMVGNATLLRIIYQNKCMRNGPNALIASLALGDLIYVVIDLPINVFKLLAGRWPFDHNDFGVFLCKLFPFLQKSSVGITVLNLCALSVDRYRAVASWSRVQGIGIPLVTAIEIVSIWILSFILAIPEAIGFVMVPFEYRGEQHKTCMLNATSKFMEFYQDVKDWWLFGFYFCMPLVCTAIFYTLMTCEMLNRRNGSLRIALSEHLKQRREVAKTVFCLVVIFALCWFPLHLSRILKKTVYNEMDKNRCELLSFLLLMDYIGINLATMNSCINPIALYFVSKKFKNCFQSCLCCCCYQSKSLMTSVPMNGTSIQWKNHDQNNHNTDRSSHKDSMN
Below are IC50 measurements against Endothelin-1 receptor (Homo sapiens) drawn from the literature.

- molecule: "COC(=O)c1cc(OC)c(OC)cc1NC(=O)c1sccc1S(=O)(=O)Nc1onc(C)c1Cl"
  value: "549 nM"

Observed IC50 on Endothelin-1 receptor (Homo sapiens), entry `CCc1cccc(OC)c1NC(=O)CN1C[C@H](c2ccc3c(c2)OCO3)[C@@H](C(=O)O)[C@@H]1c1ccc(OC)cc1` , equals 200 nM

Observed IC50 on Endothelin-1 receptor (Homo sapiens), entry `Cc1noc(NS(=O)(=O)c2ccsc2C(=O)Nc2cccc(O)c2)c1Br` , equals 146 nM

Observed IC50 on Endothelin-1 receptor (Homo sapiens), entry CCCSc1ccc2c(n1)[C@@H](c1ccc(OC)cc1)[C@H](C(=O)O)C2c1ccc2c(c1)OCO2 (single isomer, unassigned) , equals 8.2 nM
